Let's look at some compounds and their measured log10 of MIC.
system: clinical P. aeruginosa isolates; experiment: microbe, parasite or virus in culture; settings: Pseudomonas aeruginosa, 18 h, read-out: Antibiotic sensibility (MIC) of clinical P. aeruginosa isolate AUMC-Pa-3, strain AUMC-Pa-3; antibiotic alone
Quick note: numbers are log10 of MIC, with µM as the unit.

Recorded results for 7 compounds are shown here.
{"columns": ["Record Smiles", "log10 of MIC"],
 "data": [
  ["CN(C)c1ccc(O)c2c1C[C@H]1C[C@H]3[C@H](N(C)C)C(O)=C(C(N)=O)C(=O)[C@@]3(O)C(O)=C1C2=O", 1.20],
  ["CC[C@H]1OC(=O)[C@H](C)[C@@H](O[C@H]2C[C@@](C)(OC)[C@@H](O)[C@H](C)O2)[C@H](C)[C@@H](O[C@@H]2O[C@H](C)C[C@H](N(C)C)[C@H]2O)[C@](C)(O)C[C@@H](C)CN(C)[C@H](C)[C@@H](O)[C@]1(C)O", 2.11],
  ["C[C@H]1c2cccc(O)c2C(=O)C2=C(O)[C@]3(O)C(=O)C(C(N)=O)=C(O)[C@@H](N(C)C)[C@@H]3[C@@H](O)[C@@H]21", 1.20],
  ["CN(C)[C@@H]1C(O)=C(C(N)=O)C(=O)[C@@]2(O)C(O)=C3C(=O)c4c(O)c(NC(=O)CN5CCCC5)cc(F)c4C[C@H]3C[C@@H]12", 0.90],
  ["CN(C)[C@@H]1C(O)=C(C(N)=O)C(=O)[C@@]2(O)C(O)=C3C(=O)c4c(O)cccc4[C@@](C)(O)[C@H]3C[C@@H]12", 1.81],
  ["CO[C@H]1/C=C/O[C@@]2(C)Oc3c(C)c(O)c4c(O)c(c(/C=N/N5CCN(C6CCCC6)CC5)c(O)c4c3C2=O)NC(=O)/C(C)=C\\C=C\\[C@H](C)[C@H](O)[C@@H](C)[C@@H](O)[C@@H](C)[C@H](OC(C)=O)[C@@H]1C", 0.90],
  ["C[C@@H](O)[C@H]1C(=O)N2C(C(=O)O)=C(S[C@@H]3CN[C@H](C(=O)N(C)C)C3)[C@H](C)[C@H]12", -0.60]
]}

# context switch: different compound, same log10 of MIC
Checklist item: log10 of MIC tested on clinical P. aeruginosa isolates, entry CO[C@H]1/C=C/O[C@@]2(C)Oc3c(C)c(O)c4c(O)c(c5c(nc6cc(C)ccn65)c4c3C2=O)NC(=O)/C(C)=C\C=C\[C@H](C)[C@H](O)[C@@H](C)[C@@H](O)[C@@H](C)[C@H](OC(C)=O)[C@@H]1C , value?
0.90
